target: c-Src kinase domain (Homo sapiens, UniProt P12931); assay: pTyr-Var library bacterial peptide display kinase screen (enrichment scores); type: biochemical; settings: sheet "Src"; effect of the variant peptide relative to its reference peptide in the pTyr-Var library screen;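 further: log2 fold change in enrichment of variant over reference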
The label MET is reserved for Screen strictly under -0.2; NOT MET covers values equal to or above it.

{"columns": ["SUBSTANCE", "CATEGORY_LABEL"],
 "data": [
  ["PHQTIYGALMI [FGF23_Y70_S71G]", "MET"],
  ["HNLPIYEGFAL [ACTA1_Y168_V165L_YF]", "NOT MET"],
  ["QSSALYEDCFL [ASS1_Y83_R86C_YF]", "NOT MET"],
  ["Ac-LERFIYNREEL-NH2 [HLA-DPB1_Y59_F64L_YF, pTyr-Var library variant peptide, non-canonical c-Src substrate]", "NOT MET"],
  ["RWQQLYDTLNA [EIF3M_Y351_Q346R]", "NOT MET"],
  ["LSIQTYSALNF [DES_Y423_P419S]", "MET"]
]}

Inquiry: Answer whether the substance RNEAFYDTFST [EFCAB3_Y372_S370A] has Screen strictly less than -0.2
Reply text: NOT MET

Taken from paper PMC10065799.
